Here the recorded activation is given for each entry.
# EXPERIMENTAL_TARGET: Aryl hydrocarbon receptor (Homo sapiens) (UniProt P35869)
# Sequence (P35869 whole entry, looked up): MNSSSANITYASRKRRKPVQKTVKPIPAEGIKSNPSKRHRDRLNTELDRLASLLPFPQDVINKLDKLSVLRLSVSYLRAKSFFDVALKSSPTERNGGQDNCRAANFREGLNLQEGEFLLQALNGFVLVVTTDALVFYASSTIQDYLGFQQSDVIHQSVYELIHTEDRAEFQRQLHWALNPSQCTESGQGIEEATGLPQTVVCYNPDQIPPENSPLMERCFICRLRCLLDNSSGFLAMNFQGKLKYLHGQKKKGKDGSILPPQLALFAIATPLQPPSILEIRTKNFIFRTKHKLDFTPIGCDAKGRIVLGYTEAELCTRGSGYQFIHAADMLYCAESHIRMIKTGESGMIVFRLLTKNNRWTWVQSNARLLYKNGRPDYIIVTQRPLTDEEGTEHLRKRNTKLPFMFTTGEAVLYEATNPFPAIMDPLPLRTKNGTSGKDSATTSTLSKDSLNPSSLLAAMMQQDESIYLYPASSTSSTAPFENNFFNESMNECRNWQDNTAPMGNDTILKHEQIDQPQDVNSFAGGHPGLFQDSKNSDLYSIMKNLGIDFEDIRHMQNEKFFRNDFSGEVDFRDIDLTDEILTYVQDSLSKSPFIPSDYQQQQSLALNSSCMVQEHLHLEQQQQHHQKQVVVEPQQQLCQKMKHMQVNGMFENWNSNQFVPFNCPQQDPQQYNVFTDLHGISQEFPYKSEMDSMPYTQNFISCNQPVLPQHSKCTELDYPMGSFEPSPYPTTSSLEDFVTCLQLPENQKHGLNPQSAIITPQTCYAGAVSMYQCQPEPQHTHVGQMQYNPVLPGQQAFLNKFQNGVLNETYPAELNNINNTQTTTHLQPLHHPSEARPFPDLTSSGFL
# EXPERIMENTAL_DETAILS: AHR activators, primary screen, cell-based, luminescence, luciferase reporter, human (AID 2796);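 also: 0% = vehicle wells and 100% = reference agonist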
# TEST_CONDITIONS: AHR-responsive luciferase reporter cells, at 5 µM, stronger effect = higher value
About 8,000 (2.5%) of roughly 320,000 compounds were called active. The sample holds actives, similar compounds and a random draw of the others, so the mix is not that of the screen.
RECORDED_ENDPOINT: activation (%)

{"columns": ["MOLECULAR_STRING", "MEASUREMENT_UNIT", "DATA_VALUE"],
 "data": [
  ["O=C(N/N=C/c1cccc(Br)c1)c1ccc(N2CCCC2=O)cc1", "%", -0.14],
  ["COc1cc(C=NNC(=O)c2cccnc2)ccc1OC(=O)c1ccccc1F", "%", 7.39],
  ["CC(C)(C)c1cc(C(=O)N/N=C/c2ccc([N+](=O)[O-])s2)n[nH]1", "%", -8.74],
  ["Cn1c(=O)n(C)c2cc(/C=N/NC(=O)c3cccc(Br)c3)ccc21", "%", 31.6],
  ["COc1ccc(C(=O)NCC(=O)N/N=C/c2ccc([N+](=O)[O-])s2)cc1OC", "%", -1.7]
]}
